Record form. Attribute: pIC50. Fill in for each entry.
# study system: PKBα (Homo sapiens)
# Sequence (P31749 118-480 limits assumed): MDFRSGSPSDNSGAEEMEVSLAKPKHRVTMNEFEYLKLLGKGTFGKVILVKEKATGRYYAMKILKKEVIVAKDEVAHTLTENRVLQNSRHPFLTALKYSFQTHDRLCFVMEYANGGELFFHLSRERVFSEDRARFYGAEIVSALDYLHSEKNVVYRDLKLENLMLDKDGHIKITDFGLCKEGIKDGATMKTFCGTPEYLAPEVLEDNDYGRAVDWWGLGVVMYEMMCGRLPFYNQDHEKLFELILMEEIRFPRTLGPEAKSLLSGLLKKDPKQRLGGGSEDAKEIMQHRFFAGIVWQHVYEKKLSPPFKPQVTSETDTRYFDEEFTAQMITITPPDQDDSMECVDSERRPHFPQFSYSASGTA
# assay summary: PKB kinase assay (P33-labeled ATP, peptide substrate, filter plate)
# condition details: PKBα enzyme (full length or kinase domain with pleckstrin domain deleted)
pIC50: −log10 of the molar value. Structures can show the parent of a compound that is named as a salt.

Under PKBα (Homo sapiens): report pIC50 of CNC(=O)c1nc(NC[C@@H](N)Cc2ccc(C(F)(F)F)cc2)sc1-c1ccc2cnccc2c1 . > 7.30

Under PKBα (Homo sapiens): report pIC50 of N[C@H](CNc1ncc(-c2ccc3cn[nH]c(=O)c3c2)s1)Cc1ccc(C(F)(F)F)cc1 . 5.00 to 6.00

Under PKBα (Homo sapiens): report pIC50 of Cc1n[nH]c2ccc(-c3cnc(NC[C@@H](N)Cc4ccccc4)s3)cc12 . 6.00 to 7.30

Under PKBα (Homo sapiens): report pIC50 of N[C@H](CNc1nc(O)c(-c2ccc(F)c(F)c2)s1)Cc1ccc(Cl)cc1 [Example 80, dihydrochloride] . 6.00 to 7.30

Under PKBα (Homo sapiens): report pIC50 of CC1C(=O)Nc2ccc(-c3cnc(NC[C@@H](N)Cc4ccccc4)s3)cc21 (stereo partly shown) . 5.00 to 6.00

Under PKBα (Homo sapiens): report pIC50 of CN(C)C(=O)c1nc(NC[C@@H](N)Cc2ccc(C(F)(F)F)cc2)sc1-c1ccc2cnccc2c1 . 6.00 to 7.30

Under PKBα (Homo sapiens): report pIC50 of COc1cc(C[C@H](N)CNc2ncc(-c3ccc4cnccc4c3)s2)ccc1C(F)(F)F . > 7.30

Under PKBα (Homo sapiens): report pIC50 of N[C@H](CNc1ncc(-c2ccc3c(c2)CC(=O)N3)s1)Cc1ccc(F)c(F)c1 . 6.00 to 7.30

Under PKBα (Homo sapiens): report pIC50 of N[C@H](CNc1nc(-c2ccc(F)c(F)c2)c(-c2ccc3cnccc3c2)s1)Cc1ccc(C(F)(F)F)cc1 . 6.00 to 7.30

Under PKBα (Homo sapiens): report pIC50 of N[C@H](CNc1nc(CCO)c(-c2ccc3cnccc3c2)s1)Cc1ccc(C(F)(F)F)cc1 . 6.00 to 7.30

Under PKBα (Homo sapiens): report pIC50 of N[C@H](CNc1ncc(-c2ccc3[nH]c(=O)sc3c2)s1)Cc1c[nH]c2ccccc12 . 6.00 to 7.30

Under PKBα (Homo sapiens): report pIC50 of Cn1ncc2ccc(-c3cnc(NC[C@@H](N)Cc4ccc(C(F)(F)F)cc4)s3)cc21 . 5.00 to 6.00

Under PKBα (Homo sapiens): report pIC50 of N[C@H](CNc1ncc(-c2ccc3c(c2)/C(=C\c2cnc[nH]2)C(=O)N3)s1)Cc1c[nH]c2ccccc12 (stereo in doubt) . 6.00 to 7.30

Under PKBα (Homo sapiens): report pIC50 of NC(CNc1ncc(-c2ccc3c(c2)CC(=O)N3)s1)Cc1ccc(C(F)(F)F)c(F)c1 (stereo not shown) . > 7.30

Under PKBα (Homo sapiens): report pIC50 of C[C@@H](c1ccc(C(F)(F)F)cc1)[C@H](N)CNc1ncc(-c2ccc3[nH]c(=O)n(C)c3c2)s1 . 6.00 to 7.30

Under PKBα (Homo sapiens): report pIC50 of Cn1c(=O)[nH]c2ccc(-c3cnc(NCC(N)Cc4ccc(C(F)(F)F)c(F)c4F)s3)cc21 (stereo not shown) . 6.00 to 7.30

Under PKBα (Homo sapiens): report pIC50 of CC#Cc1nc(NC[C@@H](N)Cc2ccc(C(F)(F)F)cc2)sc1-c1ccc2cnccc2c1 . > 7.30

Under PKBα (Homo sapiens): report pIC50 of COCc1nc(NC[C@@H](N)Cc2ccc(Cl)c(Cl)c2)sc1-c1nc2ccncc2s1 . > 7.30

Under PKBα (Homo sapiens): report pIC50 of COC[C@@H](c1ccc(C(F)(F)F)cc1)[C@H](N)CNc1ncc(-c2ccc3c(c2)CC(=O)N3)s1 . > 7.30

Under PKBα (Homo sapiens): report pIC50 of C[C@@H](c1ccc(C(F)(F)F)cc1)[C@H](N)CNc1ncc(-c2cnc3c(c2)CC(=O)N3)s1 . 6.00 to 7.30

Under PKBα (Homo sapiens): report pIC50 of NC(CNc1ncc(-c2ccc3c(c2)CC(=O)N3)s1)Cc1ccc(C(F)(F)F)cc1F (stereo not shown) . 6.00 to 7.30

Under PKBα (Homo sapiens): report pIC50 of NC(CNc1ncc(-c2ccc3c(c2)CC(=O)N3)s1)Cc1ccc(O)c(F)c1 (stereo not shown) . 6.00 to 7.30

Under PKBα (Homo sapiens): report pIC50 of N[C@H](CNc1ncc(-c2ccc3[nH]c(=O)oc3c2)s1)Cc1ccc(C(F)(F)F)c(O)c1 . > 7.30

Under PKBα (Homo sapiens): report pIC50 of N[C@H](CNc1ncc(-c2ccc3[nH]c(=O)oc3c2)s1)Cc1ccc(Cl)cc1 . > 7.30

Under PKBα (Homo sapiens): report pIC50 of CC(C)(O)C#Cc1nc(NC[C@@H](N)Cc2ccc(C(F)(F)F)cc2)sc1-c1ccc2cnccc2c1 . 6.00 to 7.30

Under PKBα (Homo sapiens): report pIC50 of N[C@@H](Cc1ccc(C(F)(F)F)cc1)CN(Cc1ccccc1)c1ncc(-c2nc3ccncc3s2)s1 . 6.00 to 7.30

Under PKBα (Homo sapiens): report pIC50 of N[C@H](CNc1ncc(-c2nc3ccncc3s2)s1)Cc1ccc(C(F)(F)F)cc1 . > 7.30

Under PKBα (Homo sapiens): report pIC50 of Cn1c(=O)[nH]c2ccc(-c3sc(NC[C@@H](N)Cc4ccc(C(F)(F)F)cc4)nc3-c3ccccc3F)cc21 . 5.00 to 6.00

Under PKBα (Homo sapiens): report pIC50 of CC(O)[C@@H](c1ccc(C(F)(F)F)cc1)[C@H](N)CNc1ncc(-c2ccc3c(c2)CC(=O)N3)s1 (stereo partly shown) . > 7.30

Under PKBα (Homo sapiens): report pIC50 of N[C@H](CNc1ncc(-c2ccc3[nH]c(=O)oc3c2)s1)Cc1ccc(Cl)c(F)c1 . > 7.30

Under PKBα (Homo sapiens): report pIC50 of Nc1noc2ccc(-c3cnc(NC[C@@H](N)Cc4c[nH]c5ccccc45)s3)cc12 . 6.00 to 7.30
